Provenance of the data: PubChem BioAssay (NCI)

# Test Method Notes: NCI Yeast Anticancer Drug Screen. Data for the mlh1 rad18 strain (AID 175)
# Condition Context: S. cerevisiae mlh1 rad18 strain growth inhibition; at 50.0 µM
About 79,000 compounds went through this panel and 15% of them were active in at least one assay; those are over-represented in the sample as a whole. Calls of active or inactive are those of the source. No stated cut-off is given here; in the data, active means growth inhibition above about 70%; inactive means the rest.
// one of class 1 (active), class 0 (inactive), no free text

Solved cases (5 shown):
CCCCCC(CCCCC)C(=O)O	class 1
N#Cc1ccc([N+](=O)[O-])o1	class 1
O=C(NCCN1CCN2Cc3[nH]c4ccccc4c3CC2C1)c1ccc(Cl)cc1 (configuration not stated)	class 0
CN(C)c1ccc(/C=C\c2c3ccccc3cc[n+]2[O-])cc1	class 0
O=C1CCSC(=S)N1c1ccc(N=Nc2ccccc2)cc1	class 1

Status in this test for COc1cc2c(ccc3cc4cccc[n+]4cc32)c(Br)c1OC ? class 0

What classification did CCOC(=O)c1csc(/C=C/c2cc(OC)c(OC)c(OC)c2)n1 end up with in this test? class 0

Could you please tell me the result logged for O=S(O)CCCCCSSc1ccccc1 in this assay? class 0

Can you look up the reported call for Cc1ccc(N=C(N)NN=C(c2ccc(Cl)cc2)c2ccc(Cl)cc2)cc1 for me? class 0

Per the records of this test, what outcome belongs to CCCCCCCC1SCC(=O)N1c1nncs1 (configuration not stated) ? class 0

// return assay outcome for CC(C(O)c1ccccc1)C(O)(C(F)(F)F)C(F)(F)F (configuration not stated) class 0

Which outcome was assigned to NC(=O)NN=C1CSSC1 in this test? class 1

---

# Test Method Notes: NCI Yeast Anticancer Drug Screen. Data for the mlh1 rad18 strain (AID 175)
# Condition Context: S. cerevisiae mlh1 rad18 strain growth inhibition; at 50.0 µM; stronger effect = higher value
This is part of a sample that, as a whole, favours compounds with a hit. Of some 79,000 tested, about 15% had one in any assay.
Measured Parameter: growth inhibition (%)
Answer with a number only, understood to be in %.

Example entries and their recorded answers appear below.
S=C(N/N=C1\C=Cc2ccccc2C1)N/N=C1\C=Cc2ccccc2C1	71
Cc1ccc(I)c(C(C)(C)O)c1	70.2
O=C1SCCN1/N=C/c1ccc([N+](=O)[O-])o1	92

What value of growth inhibition has been reported for the following compound? CCNc1ccc2c(c1)Cc1ccccc1-2 90.7

Any idea what its growth inhibition is? The compound is O=[N+]([O-])c1ccc(NCc2ccccc2)c([N+](=O)[O-])c1 68

Quick check: growth inhibition of COc1ccc(OC)c2c(C(=O)O)c(C(C)c3ccccc3)ccc12 (centres undefined) ? 92.3

Can you look up the measured growth inhibition of CCC[CH2][Sn]([CH2]CCC)([O]C(=O)c1cc(F)cc(F)c1)[O]C(=O)c1cc(F)cc(F)c1 for me? 68.1

Fill in: growth inhibition of O=C1c2cc3c(cc2CC1Br)CCC3 (centres undefined) is ___ 92.4

Dear colleague, I am looking for the recorded growth inhibition of the following compound: CCCCCC/C=C\CCCCCCCCCC1=C(CN2CCN(C)CC2)C(=O)C=C(OC)C1=O 88.8

---

# Test Method Notes: NCI Yeast Anticancer Drug Screen. Data for the mec2-1 strain (AID 157)
# Condition Context: S. cerevisiae mec2-1 strain, at 50.0 µM, stronger effect = higher value
About 79,000 compounds went through this panel and 15% of them were active in at least one assay; those are over-represented in the sample as a whole. Calls of active or inactive are those of the source. No stated cut-off is given here; in the data, active means growth inhibition above about 70%; inactive means the rest.
Measured Parameter: growth inhibition

Solved cases (5 shown):
O=S(=O)(O)N=Nc1ccc(O)cc1	94.3% (active)
CN(C)CCC1(C2=CCCC2)CC/C(=C\c2ccccc2Cl)C1=O (configuration not stated)	22.6% (inactive)
CC(=O)Oc1cc2c(cc1OC(C)=O)OCC(c1ccc(C)cc1)C2 (configuration not stated)	57.9% (inactive)
Nc1ccc(SSc2ccc(N)cc2)cc1	61.5% (inactive)
Cc1cc(/C=C/c2cccc[n+]2C)c(C)n1-c1ccccc1	91.6% (active)

Quick one: growth inhibition of CCCCOc1c(OCCCC)c(=O)c1=O ? -48.5% (inactive)

---

# Test Method Notes: NCI Yeast Anticancer Drug Screen. Data for the mec2-1 strain (AID 157)
# Condition Context: S. cerevisiae mec2-1 strain, at 5.0 µM (retest, dose inferred, filed as 0.5), stronger effect = higher value
The panel holds about 79,000 compounds, 15% with a hit somewhere; the sample as a whole holds those more often.
Here the recorded growth inhibition is given for each entry.
Lab book: enter the figure in %, no units written.

N#CSCCSC#N	-1
CC(C)(C)c1cc(C(O)(C(F)(F)F)C(F)(F)F)c(S)c(C(O)(C(F)(F)F)C(F)(F)F)c1	-6

Record request: growth inhibition value, item COc1ccc(-c2c(C#N)c(-c3ccc(C)cc3)n(NS(=O)(=O)c3ccc(C)cc3)c(=O)c2C#N)cc1 -2

---

# Test Method Notes: NCI Yeast Anticancer Drug Screen. Data for the bub3 strain (AID 167)
# Condition Context: S. cerevisiae bub3 mutant strain, at 50.0 µM, stronger effect = higher value
Compounds without any hit were thinned out: in the full panel of roughly 79,000, 15% have a hit.
Measured Parameter: growth inhibition (%)
# output: bare number, implied unit %

// solved cases for growth inhibition follow
CCCCCCCC1SCC(=O)N1c1nncs1 (centres undefined)	2.9
CNC(=O)OC(C)CN1c2ccccc2Sc2ccc(Cl)cc21 (centres undefined)	88.3
C#CC(NCCC(C)CC(C)(C)C)C(C)C (centres undefined)	29.6

Query compound follows.
I'd like to know its growth inhibition. The compound in question is S=C1Nc2cnc3ccccc3c2SC1c1ccccc1 (centres undefined) 90.8

---

The following molecules are listed with their measured growth inhibition values.
# Test Method Notes: NCI Yeast Anticancer Drug Screen. Data for the sgs1 mgt1 strain (AID 161);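 further: 0% = growth of cultures given vehicle only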
# Condition Context: S. cerevisiae sgs1 mgt1 strain, at 50.0 µM (retest, dose inferred, filed as 5.0), stronger effect = higher value
This is part of a sample that, as a whole, favours compounds with a hit. Of some 79,000 tested, about 15% had one in any assay.
Numeric only. Scale: %

Example results:
Nc1c(-c2c(Cl)cccc2Cl)[n+]([O-])c2ccccc2[n+]1[O-]	100
CC([N+](=O)[O-])C1(O)C(=O)c2cccc3cccc1c23 (stereo not given)	96
O=C(O)C(Br)C(Br)c1ccccc1[N+](=O)[O-] (stereo not given)	79
CCCCCCCCCCCCOC(=O)C[n+]1cccc(C(=O)Nc2ccc(Cl)cc2)c1	98
CC(C)/C(Cl)=N\OC(=O)Nc1ccc(S(N)(=O)=O)cc1	-23
Clc1ccc(-c2cc(-c3cc(-c4ccc(Cl)c(Cl)c4)n[nH]3)[nH]n2)cc1Cl	67
CN(C)CC(CN(C)C)C(=O)c1ccc(Oc2ccc(Cl)c(Cl)c2)cc1	98
c1cc(NC2CCCCC2)ccc1CN1CCOCC1	88

Fill blank: measured growth inhibition of the molecule c1ccc(C[n+]2cccc(-c3cc4ccccc4[nH]3)c2)cc1 is ____. 17

Entry CC(=O)Nc1nnc(C)s1 : reported growth inhibition = ? -5

Any idea what growth inhibition was measured for NC(CCCNc1nc(O)cc(=O)[nH]1)C(=O)O (stereo not given) ? -68

I have this molecule here, Oc1c(Br)cc(Cl)cc1C(c1cc(Cl)cc(Br)c1O)C(Cl)(Cl)Cl , and I need its recorded growth inhibition. 99

# query: growth inhibition of entry CCCCN(CCCC)Cc1ccc(NC(C(=O)c2ccccc2)c2ccccc2)cc1 (stereo not given) 86

---

Quick list: growth inhibition per entry.
# Test Method Notes: NCI Yeast Anticancer Drug Screen. Data for the rad50 strain (AID 155);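 further: 0% = growth of vehicle-only cultures of the same strain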
# Condition Context: S. cerevisiae rad50 strain growth inhibition; at 50.0 µM; stronger effect = higher value
The panel holds about 79,000 compounds, 15% with a hit somewhere; the sample as a whole holds those more often.
Could you give me the number in %? Just the number is fine.

Worked cases, answers included:
CC(C)C(OC(=O)c1ccc(NCc2cc(O)ccc2O)cc1)C(C)C	89.5
COc1ccc(CC2C(=O)NC(C)C(=O)N(C)C3Cc4ccc(cc4)Oc4cc(ccc4O)CC(C(=O)NC(C)C(=O)NC(C)C(=O)N2C)N(C)C3=O)cc1 (configuration not stated)	61.1
CCCCCCCCCCCCCCCC[N+](C)(CCO)Cc1cnc[nH]1 (configuration not stated)	90.2
CCN(CC)CCCNc1nccc2c(C)c3[nH]c4ccncc4c3cc12	59.4
S=C(N/N=C/c1ccccn1)Nc1ccccn1	90.8

Value lookup for growth inhibition; key = CC1=NC2=NC(CCCC(=O)OCc3ccc(Cl)c(Cl)c3)=NC3=CC=CC(=N1)N32 61.1

Field request: growth inhibition | item: O=C1OCc2cccc3cccc1c23 88.5

---

# Test Method Notes: NCI Yeast Anticancer Drug Screen. Data for the rad50 strain (AID 155);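 further: 0% = growth of vehicle-only cultures of the same strain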
# Condition Context: S. cerevisiae rad50 strain growth inhibition; at 50.0 µM; stronger effect = higher value
The panel holds about 79,000 compounds, 15% with a hit somewhere; the sample as a whole holds those more often. Calls of active or inactive are those of the source. No stated cut-off is given here; in the data, active means growth inhibition above about 70%; inactive means the rest.
Measured Parameter: growth inhibition

Here's what some known entries look like.
CSC(SC)(C(=O)O)c1cc(-c2c(Cl)cccc2Cl)no1	39% (inactive)
COC(=O)C1CCC(c2ccccc2)CC1C(=O)OC (configuration not stated)	24.9% (inactive)
CC(=O)c1ccc(OCc2ccccc2)cc1	-2.25% (inactive)
Oc1c(I)cc(Cl)c2cccnc12	97.2% (active)
Cc1cccc(C[P+](c2ccccc2)(c2ccccc2)c2ccccc2)c1	90.3% (active)
COC(=O)c1ccc(/C=C/C2=CC(=O)C=CC2=O)cc1	29.6% (inactive)

Continue with the next compound.
Look up growth inhibition for this compound: CCOC(=O)/C(=C/c1ccccn1)C(=O)c1ccccc1 85.8% (active)
